# target.entity: human full-length autophosphorylated recombinant HPK1 (Homo sapiens (Human))
# Sequence (Q92918 other isoform, or with tags, fused parts or gaps): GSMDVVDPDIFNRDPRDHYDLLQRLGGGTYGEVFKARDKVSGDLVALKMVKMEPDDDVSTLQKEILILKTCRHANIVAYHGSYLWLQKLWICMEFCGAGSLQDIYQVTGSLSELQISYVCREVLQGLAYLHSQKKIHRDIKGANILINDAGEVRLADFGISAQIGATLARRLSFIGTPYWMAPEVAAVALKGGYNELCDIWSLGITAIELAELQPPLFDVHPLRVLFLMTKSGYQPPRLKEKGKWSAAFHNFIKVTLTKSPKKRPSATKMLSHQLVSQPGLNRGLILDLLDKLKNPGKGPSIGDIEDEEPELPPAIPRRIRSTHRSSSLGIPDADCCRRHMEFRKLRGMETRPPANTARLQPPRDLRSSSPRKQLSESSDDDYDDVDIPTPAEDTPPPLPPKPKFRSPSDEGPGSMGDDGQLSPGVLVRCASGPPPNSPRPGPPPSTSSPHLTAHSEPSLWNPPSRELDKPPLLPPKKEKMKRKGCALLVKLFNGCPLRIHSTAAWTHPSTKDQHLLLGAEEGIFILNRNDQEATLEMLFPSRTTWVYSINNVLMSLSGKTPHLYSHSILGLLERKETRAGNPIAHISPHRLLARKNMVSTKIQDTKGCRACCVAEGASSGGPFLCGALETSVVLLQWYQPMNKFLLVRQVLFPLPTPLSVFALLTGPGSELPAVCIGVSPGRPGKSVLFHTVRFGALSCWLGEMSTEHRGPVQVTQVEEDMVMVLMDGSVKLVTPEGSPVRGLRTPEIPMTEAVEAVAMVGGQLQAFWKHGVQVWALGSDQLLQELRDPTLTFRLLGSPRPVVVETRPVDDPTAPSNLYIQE
# experiment.notes: HPK1 biochemical enzyme assay (chelation-enhanced fluorescence, CHEF)
# condition.context: 0.5 nM HPK1, 45 μM ATP, Morrison fit
pKi: −log10 of the molar value.
pKi overview

| compound | operator.symbol | pKi |
| --- | --- | --- |
| COC[C@@H](N)c1nc(C2(C)CC2)cc2c1CN(c1cccc(-c3nnc4n3[C@@H](CO)CC4)n1)C2=O (single isomer, unassigned) [Example 38] | = | 9.74 |
| C[C@H](N)c1nc(N2CCC[C@H]2C)cc2c1CN(c1cccc(-c3nnc4n3[C@@H](C)CC4)n1)C2=O (single isomer, unassigned) [Example 26] | = | 9.14 |
| CCn1cnnc1-c1cccc(N2Cc3c(cc(C4(C)CC4)nc3[C@H](C)N)C2=O)n1 [Example 116] | = | 9.19 |
| CCn1c(C)nnc1-c1cccc(N2Cc3c(cc(N4CCC[C@H]4C)nc3[C@H](C)N)C2=O)n1 (single isomer, unassigned) [Example 155] | = | 9.62 |
| CCCn1cnnc1-c1cccc(N2Cc3c(cc(N4CCC[C@H]4C)nc3[C@H](C)N)C2=O)n1 (single isomer, unassigned) [Example 102] | = | 9.96 |
| CC[C@@H](N)c1nc(C2(C)CC2)cc2c1CN(c1cccc(-c3nnc4n3[C@@H](C)CC4)n1)C2=O (single isomer, unassigned) [Example 37] | > | 10.30 |
